- targetEntity: human kisspeptin receptor (Homo sapiens (Human), UniProt Q969F8)
- Sequence (Q969F8 whole entry): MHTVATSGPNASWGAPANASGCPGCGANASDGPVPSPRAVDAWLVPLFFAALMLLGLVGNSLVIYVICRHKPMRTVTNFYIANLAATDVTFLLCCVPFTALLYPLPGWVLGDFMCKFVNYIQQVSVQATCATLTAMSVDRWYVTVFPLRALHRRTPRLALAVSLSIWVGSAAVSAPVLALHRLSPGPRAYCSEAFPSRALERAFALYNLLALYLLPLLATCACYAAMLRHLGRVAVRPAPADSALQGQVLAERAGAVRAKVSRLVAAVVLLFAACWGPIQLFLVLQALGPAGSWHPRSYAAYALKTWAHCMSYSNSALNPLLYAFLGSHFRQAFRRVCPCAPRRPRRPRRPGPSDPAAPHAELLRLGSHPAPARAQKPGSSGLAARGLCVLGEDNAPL
- testDescription: Human KISS1R binding assay (membrane competition binding)
- protocolConditions: 90 min at room temperature; competition with 0.2 nM [125I]-metastin (45-54); Flp-In T-Rex 293 kisspeptin membranes; metal complexes nonradioactive Ga, In, Lu; read-out: hKiSSR Binding Ki (90 min)
pKi: −log10 of the molar value. Square brackets hold non-standard residues; d marks the D form. Peptide text beside a SMILES is read from it. * marks the point of attachment. DOTA = O=C(O)CN1CCN(CC(=O)O)CCN(CC(=O)*)CCN(CC(=O)O)CC1; Ala(9-anthryl) = N[C@@H](Cc1c2ccccc2cc2ccccc12)C(=O)O; Gly(N-(3-F-4-Me-benzyl)) = Cc1ccc(CNCC(=O)*)cc1F; Api(1-amidino) = N=C(N)N1CCC(N)(C(=O)O)CC1; 2Nal = N[C@@H](Cc1ccc2ccccc2c1)C(=O)O; 4Pal = N[C@@H](Cc1ccncc1)C(=O)O; Api = NC1(C(=O)O)CCNCC1; Ahx = NCCCCCC(=O)O; azaGly = NNC(=O)O
pKi values, listed per item

What the record says about CC(C)C[C@H](NC(=O)NNC(=O)[C@H](Cc1ccccc1)NC(=O)CCCCCNC(=O)[C@H](Cc1ccc2ccccc2c1)NC(=O)[C@@H](Cc1ccc(O)cc1)NC(=O)CN1CCN(CC(=O)O)CCN(CC(=O)O)CCN(CC(=O)O)CC1)C(=O)NC1(C(=O)N[C@@H](Cc2c[nH]c3ccccc23)C(N)=O)CCN(C(=N)N)CC1 [Compound 287] ({DOTA}-[dY][2Nal][Ahx]F[azaGly]L[Api(1-amidino)]W-NH2) : pKi is 7.00 to 8.00

What the record says about CC(C)C[C@H](NC(=O)NNC(=O)[C@H](Cc1ccccc1)NC(=O)[C@@H](NC(=O)[C@H](CC(N)=O)NC(=O)[C@H](Cc1c2ccccc2cc2ccccc12)NC(=O)[C@@H](Cc1ccc(O)cc1)NC(=O)CCCCCNC(=O)CN1CCN(CC(=O)O)CCN(CC(=O)O)CCN(CC(=O)O)CC1)[C@@H](C)O)C(=O)NC1(C(=O)N[C@@H](Cc2c[nH]c3ccccc23)C(N)=O)CCN(C(=N)N)CC1 [Compound 184] ({DOTA-Ahx}-[dY][Ala(9-anthryl)]NTF[azaGly]L[Api(1-amidino)]W-NH2) : pKi is > 8.00

What the record says about Cc1ccc(CNCC(=O)N2CCC(NC(=O)[C@H](CC(C)C)NC(=O)NNC(=O)[C@H](Cc3ccccc3)NC(=O)[C@@H](NC(=O)[C@H](CC(N)=O)NC(=O)[C@@H](Cc3c[nH]c4ccccc34)NC(=O)[C@H](CC(N)=O)NC(=O)[C@@H](Cc3ccc(O)cc3)NC(=O)CCCCCNC(=O)CN3CCN(CC(=O)O)CCN(CC(=O)O)CCN(CC(=O)O)CC3)[C@@H](C)O)(C(=O)N[C@@H](Cc3ccncc3)C(N)=O)CC2)cc1F [Compound 106] ({DOTA-Ahx}-[dY]N[dW]NTF[azaGly]L[Api](Gly(N-(3-F-4-Me-benzyl)))[4Pal]-NH2) : pKi is > 8.00

* * *

- targetEntity: UniProt:Q969F8
- testDescription: Human KISS1R binding assay (membrane competition binding)
- protocolConditions: 90 min at room temperature; competition with 0.2 nM [125I]-metastin (45-54); Flp-In T-Rex 293 kisspeptin membranes; metal complexes nonradioactive Ga, In, Lu; read-out: hKiSSR Binding Ki (90 min)
Square brackets hold non-standard residues; d marks the D form. Peptide text beside a SMILES is read from it. * marks the point of attachment. DOTA = O=C(O)CN1CCN(CC(=O)O)CCN(CC(=O)*)CCN(CC(=O)O)CC1; Gly(N-(3-F-4-Me-benzyl)) = Cc1ccc(CNCC(=O)*)cc1F; Bpa = N[C@@H](Cc1ccc(C(=O)c2ccccc2)cc1)C(=O)O; Api = NC1(C(=O)O)CCNCC1; Ahx = NCCCCCC(=O)O; azaGly = NNC(=O)O
readoutType: Ki

What the record says about Cc1ccc(CNCC(=O)N2CCC(NC(=O)[C@H](CC(C)C)NC(=O)NNC(=O)[C@H](Cc3ccccc3)NC(=O)[C@@H](NC(=O)[C@H](CC(N)=O)NC(=O)[C@H](Cc3ccc(C(=O)c4ccccc4)cc3)NC(=O)[C@@H](Cc3ccc(O)cc3)NC(=O)CCCCCNC(=O)CN3CCN(CC(=O)O)CCN(CC(=O)O)CCN(CC(=O)O)CC3)[C@@H](C)O)(C(=O)N[C@@H](Cc3c[nH]c4ccccc34)C(N)=O)CC2)cc1F [Compound 364] ({DOTA-Ahx}-[dY][Bpa]NTF[azaGly]L[Api](Gly(N-(3-F-4-Me-benzyl)))W-NH2) : Ki is < 10 nM

* * *

Ki values, listed per item
- targetEntity: human kisspeptin receptor (Homo sapiens (Human))
- testDescription: Human KISS1R binding assay (membrane competition binding)
- protocolConditions: 90 min at room temperature; competition with 0.2 nM [125I]-metastin (45-54); Flp-In T-Rex 293 kisspeptin membranes; metal complexes nonradioactive Ga, In, Lu; read-out: hKiSSR Binding Ki (90 min)
Numbered stars: 1 amine (or outer) side, 2 acyl side, 3 side chain; on linkers, the order of the positions; unused ones are H or OH. Square brackets hold non-standard residues; d marks the D form. Peptide text beside a SMILES is read from it. * marks the point of attachment. DOTA = O=C(O)CN1CCN(CC(=O)O)CCN(CC(=O)*)CCN(CC(=O)O)CC1; Gly(N-(3-F-4-Me-benzyl)) = Cc1ccc(CNCC(=O)*)cc1F; Api(1-amidino) = N=C(N)N1CCC(N)(C(=O)O)CC1; Hydrocinnamoyl(4-Me) = Cc1ccc(CCC(=O)*)cc1; Phe(4-CN) = N#Cc1ccc(C[C@H](N)C(=O)O)cc1; d2Nal = N[C@H](Cc1ccc2ccccc2c1)C(=O)O; X1 = O=C(CN1CCC(N[*:1])CC1)[*:2]; d4Pal = N[C@H](Cc1ccncc1)C(=O)O; X15 = O=C(CNCCc1ccc(I)cc1)*; 4Amb = NCc1ccc(C(=O)O)cc1; Api = NC1(C(=O)O)CCNCC1; PEG2 = NCCOCCOCCC(=O)O; Ahx = NCCCCCC(=O)O; azaGly = NNC(=O)O; Sar = CNCC(=O)O

- Cc1ccc(CNCC(=O)N2CCC(NC(=O)[C@H](CC(C)C)NC(=O)NNC(=O)[C@H](Cc3ccccc3)NC(=O)[C@@H](NC(=O)[C@H](CC(N)=O)NC(=O)[C@@H](Cc3ccncc3)NC(=O)[C@@H](Cc3ccc(O)cc3)NC(=O)CN3CCC(NC(=O)CN4CCN(CC(=O)O)CCN(CC(=O)O)CCN(CC(=O)O)CC4)CC3)[C@@H](C)O)(C(=O)N[C@@H](Cc3c[nH]c4ccccc34)C(N)=O)CC2)cc1F [Compound 29] ({DOTA}-[X1][dY][d4Pal]NTF[azaGly]L[Api](Gly(N-(3-F-4-Me-benzyl)))W-NH2): < 10 nM
- CNCC(=O)N1CCC(NC(=O)[C@H](CC(C)C)NC(=O)NNC(=O)[C@H](Cc2ccccc2)NC(=O)[C@@H](NC(=O)[C@H](CC(N)=O)NC(=O)[C@@H](Cc2ccc3ccccc3c2)NC(=O)[C@@H](Cc2ccc(O)cc2)NC(C)=O)[C@@H](C)O)(C(=O)N[C@@H](Cc2c[nH]c3ccccc23)C(N)=O)CC1 [Compound 393] (Ac-[dY][d2Nal]NTF[azaGly]L[Api](Sar)W-NH2): < 10 nM
- CC(C)C[C@H](NC(=O)NNC(=O)[C@H](Cc1ccccc1)NC(=O)[C@@H](NC(=O)[C@H](CC(N)=O)NC(=O)[C@@H](Cc1ccc2ccccc2c1)NC(=O)[C@@H](Cc1ccc(O)cc1)NC(=O)CCCCCNC(=O)CN1CCN(CC(=O)O)CCN(CC(=O)O)CCN(CC(=O)O)CC1)[C@@H](C)O)C(=O)NC1(C(=O)N[C@H](Cc2c[nH]c3ccccc23)C(N)=O)CCN(C(=O)CNCCc2ccc(I)cc2)CC1 [Compound 373] ({DOTA-Ahx}-[dY][d2Nal]NTF[azaGly]L[Api](X15)[dW]-NH2): 10 to 100 nM
- Cc1ccc(CNCC(=O)N2CCC(NC(=O)[C@H](CC(C)C)NC(=O)NNC(=O)[C@H](Cc3ccccc3)NC(=O)[C@@H](NC(=O)[C@H](CC(N)=O)NC(=O)c3ccc(CNC(=O)CN4CCN(CC(=O)O)CCN(CC(=O)O)CCN(CC(=O)O)CC4)cc3)[C@@H](C)O)(C(=O)N[C@@H](Cc3ccc(C#N)cc3)C(N)=O)CC2)cc1F [Compound 240] ({DOTA-4Amb}-NTF[azaGly]L[Api](Gly(N-(3-F-4-Me-benzyl)))[Phe(4-CN)]-NH2): < 10 nM

What the record says about Cc1ccc(CCC(=O)NCCOCCOCCC(=O)N[C@H](Cc2ccc(O)cc2)C(=O)N[C@@H](CCCCNC(=O)CN2CCN(CC(=O)O)CCN(CC(=O)O)CCN(CC(=O)O)CC2)C(=O)N[C@@H](CC(N)=O)C(=O)N[C@H](C(=O)N[C@@H](Cc2ccccc2)C(=O)NNC(=O)N[C@@H](CC(C)C)C(=O)NC2(C(=O)N[C@@H](Cc3ccccc3)C(N)=O)CCN(C(=N)N)CC2)[C@@H](C)O)cc1 [Compound 322] ({Hydrocinnamoyl(4-Me)-PEG2}-[dY]K(DOTA)NTF[azaGly]L[Api(1-amidino)]F-NH2) : Ki is < 10 nM
